Reported values of growth inhibition for individual entries
- Experiment summary: NCI Yeast Anticancer Drug Screen. Data for the cln2 rad14 strain (AID 165);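 further: 0% = growth equal to vehicle treated cultures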
- Experimental parameters: S. cerevisiae cln2 rad14 strain, at 50.0 µM, hits give high values
Compounds without any hit were thinned out: in the full panel of roughly 79,000, 15% have a hit.
Enter your answer as a number in %; do not include the unit.

// known answers, use as guide
| Compound | Unit descriptor | Value observed |
| --- | --- | --- |
| CCCC(CC/C(C)=N/NC(N)=O)[N+](=O)[O-] (centres undefined) | % | -9.55 |
| O=C(O)c1cc(C(=O)Nc2cccc3ccccc23)c(C(=O)O)cc1C(=O)Nc1cccc2ccccc12 | % | -5.4 |
| CC(C)(O)CCC(C)(C)O | % | -25.9 |
| CCCCOC(=O)c1ccc(NC(=O)Nc2cc([N+](=O)[O-])ccc2F)cc1 | % | 54.6 |
| O=[N+]([O-])c1cccc(/C=C/COc2ccccc2)c1 | % | -48.7 |

Exam item: Name the recorded growth inhibition of the compound listed here: `Cc1ccc(SC(=O)Cc2ccc([N+](=O)[O-])cc2)cc1`
Marked response: 88.3

Exam item: Dear colleague, please send me the reported growth inhibition for CC(C)=C1C(=O)C[C@@]2(C)C[C@H]3OC3(C)CC/C=C(/C)CCC12 (some centres undefined) when you can.
Marked response: 12.9

Exam item: Fill in reported growth inhibition for this entry: `O=C(Nc1ccc(S(=O)(=O)N2CCCCC2)cc1)OC(c1ccccc1)c1ccccc1`
Marked response: 15.9

* * *

- Experiment summary: NCI Yeast Anticancer Drug Screen. Data for the sgs1 mgt1 strain (AID 161);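 further: 0% = growth of cultures given vehicle only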
- Experimental parameters: S. cerevisiae sgs1 mgt1 strain, at 50.0 µM, hits give high values
This is part of a sample that, as a whole, favours compounds with a hit. Of some 79,000 tested, about 15% had one in any assay.
Measure: growth inhibition (%)
Kindly answer with a numeric value in %, unit omitted.

Some solved cases for reference:
| Compound | Value observed |
| --- | --- |
| CS(=O)(=O)OCCn1cnc2nc(NC(=O)c3ccccc3)[nH]c(=O)c21 | -12.7 |
| c1ccc(-c2nc(-c3ccccc3)n3nc4c(c3c2-c2ccccc2)CCCCCC4)cc1 | -19.6 |
| CC(=O)NC(C)c1ccc(N=NN2CCCC2)cc1 (centres undefined) | 20 |

# context switch: different compound, same growth inhibition
Exam item: Give me measured growth inhibition, please, for this compound: CC(C)OC(=O)N1C(=O)C2C3CCC(O3)C2C1=O (centres undefined)
Marked response: 15.2

* * *

- Experiment summary: NCI Yeast Anticancer Drug Screen. Data for the mlh1 rad18 strain (AID 175)
- Experimental parameters: S. cerevisiae mlh1 rad18 strain growth inhibition; at 50.0 µM; hits give high values
The panel holds about 79,000 compounds, 15% with a hit somewhere; the sample as a whole holds those more often. Calls of active or inactive are those of the source. No stated cut-off is given here; in the data, active means growth inhibition above about 70%; inactive means the rest.
Measure: growth inhibition

Exam item: Return growth inhibition for the following compound: `CCN(CC)CCOC(=O)COc1ccc(Cc2ccccc2)cc1`
Marked response: 11.3% (inactive)

Exam item: Give the reported growth inhibition for this compound. `CC(C)(C)[Si](C)(C)Oc1cc(CO)cc2c1cc(=N)o[n+]2[O-]`
Marked response: -31.2% (inactive)

Exam item: State, in one line, measured growth inhibition of `C#CC[N+](CC)(CC)CC`
Marked response: -13.2% (inactive)
